biological target: CYP3A4 (Homo sapiens); experiment: Time-dependent inhibition of cytochromes (CYP450 TDI); assay type: in vitro ADME; conditions: human, pooled human liver microsomes, pH 7.4, probe midazolam, CYP3A4 (midazolam probe); 0 min preincubation; 15 μM; human hepatic microsomes; read-out: 15 μM % Inh
Sequence (P08684 whole entry): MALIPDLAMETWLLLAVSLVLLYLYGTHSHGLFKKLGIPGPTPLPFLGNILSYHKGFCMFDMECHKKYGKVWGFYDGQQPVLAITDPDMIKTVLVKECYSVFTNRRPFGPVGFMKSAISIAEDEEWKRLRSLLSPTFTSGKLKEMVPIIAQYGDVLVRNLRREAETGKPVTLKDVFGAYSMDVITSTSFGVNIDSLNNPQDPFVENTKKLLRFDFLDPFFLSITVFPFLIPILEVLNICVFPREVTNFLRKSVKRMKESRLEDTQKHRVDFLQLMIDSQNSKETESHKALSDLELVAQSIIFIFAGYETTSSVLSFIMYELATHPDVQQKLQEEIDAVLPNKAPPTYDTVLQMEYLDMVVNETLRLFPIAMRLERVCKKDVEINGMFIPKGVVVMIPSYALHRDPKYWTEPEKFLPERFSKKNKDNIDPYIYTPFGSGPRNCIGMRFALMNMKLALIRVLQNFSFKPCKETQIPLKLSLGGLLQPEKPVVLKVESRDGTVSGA
readoutName: inhibition at 15 µM
Number first, unit second.

Query block: Would you kindly share the measured inhibition at 15 µM for C#Cc1cc(Nc2nccc(Oc3ccc(NC(=O)Nc4cc(C(C)(C)C)nn4-c4ccc(OC)cc4)c4ccccc34)n2)cc(C(=O)NCCN2CCOCC2)c1 [Example 77] ?
Result block: 15%

###

biological target: GSK3α (Homo sapiens); test: GSK 3α enzyme inhibition (FRET), Method 1; format: biochemical; details: Table 4a1
Sequence (P49840 whole entry): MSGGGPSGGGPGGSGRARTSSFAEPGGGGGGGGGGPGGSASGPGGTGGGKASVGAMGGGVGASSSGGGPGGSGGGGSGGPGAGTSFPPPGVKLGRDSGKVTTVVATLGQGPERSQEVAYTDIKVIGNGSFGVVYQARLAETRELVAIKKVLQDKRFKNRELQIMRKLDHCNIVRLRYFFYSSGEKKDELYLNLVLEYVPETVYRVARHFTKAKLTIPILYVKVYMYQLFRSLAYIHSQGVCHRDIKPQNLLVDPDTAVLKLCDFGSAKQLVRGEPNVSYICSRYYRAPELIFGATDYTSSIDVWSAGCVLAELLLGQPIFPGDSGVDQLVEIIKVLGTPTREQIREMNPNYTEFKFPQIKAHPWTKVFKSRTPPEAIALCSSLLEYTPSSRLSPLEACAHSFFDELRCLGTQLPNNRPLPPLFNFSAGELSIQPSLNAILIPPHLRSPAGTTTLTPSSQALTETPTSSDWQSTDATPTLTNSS
pIC50: −log10 of the molar value.
Field: pIC50. Provide a value for each of the compounds that follow.

Query block: Form field - read-out: pIC50; system: GSK3α (Homo sapiens); submitted item: C=C(C)c1cc(NC(=O)Nc2ccc(Oc3ccnc(Nc4cc(OC)cc(C(=O)NCCN5CCOCC5)c4)n3)c3ccccc23)n(-c2ccc(OC)cc2)n1
Result block: < 4.89

Query block: I'm curious: which pIC50 was measured for COc1ccc(-n2nc(C(C)(C)C)cc2NC(=O)Nc2ccc(Oc3ccnc(Nc4cc(Br)cc(C(N)=O)c4)n3)c3ccccc23)cc1 tested on GSK3α (Homo sapiens)?
Result block: < 5.86

Query block: Requested read-out pIC50, target or system GSK3α (Homo sapiens), entry COc1cc(Nc2nccc(Oc3ccc(NC(=O)Nc4cc(C(C)C)nn4-c4ccc(C)cc4)c4ccccc34)n2)cc(C(=O)NCCN2CCOCC2)c1
Result block: 5.10
